target: β-lactamase Staph. Russell (Staphylococcus aureus, UniProt P00807); test: β-lactamase inhibition, Staph. Russell enzyme; type: biochemical; settings: read-out: % Inhibition of - lactamases at 40 μg/ml, Staph. Russell
Sequence (P00807 25-281): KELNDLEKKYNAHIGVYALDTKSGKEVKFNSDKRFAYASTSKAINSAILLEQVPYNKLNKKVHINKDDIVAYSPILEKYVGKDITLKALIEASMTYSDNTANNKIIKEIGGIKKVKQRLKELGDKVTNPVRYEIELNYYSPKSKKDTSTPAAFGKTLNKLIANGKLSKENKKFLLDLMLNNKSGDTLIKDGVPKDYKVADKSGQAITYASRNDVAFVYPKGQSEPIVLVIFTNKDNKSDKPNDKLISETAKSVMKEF
Kind request: treat 10% as inclusive, so inhibition at 40 µg/mL at 10% or higher is true, anything lower is false.

Completed entries (count: 3):
{"compound": "COC(=O)[C@H]1[C@H](CCOS(=O)(=O)c2ccc(C)cc2)O[C@@H]2CC(=O)N21 (relative stereo)", "class": "false"}
{"compound": "COC(=O)[C@H]1[C@H](CBr)O[C@@H]2CC(=O)N21 (relative stereo) [CH2 Br, CO2 CH3, (2RS,3RS,5RS)]", "class": "true"}
{"compound": "O=C(OCc1ccccc1)[C@@H]1O[C@@H]2CC(=O)N2[C@H]1C(=O)OCc1ccccc1 [CO2 CH2 Ph, CO2 CH2 Ph, (2R,3R,5R)]", "class": "false"}

stdin: # bool: inhibition at 40 µg/mL of O=C(O)[C@H]1CO[C@@H]2CC(=O)N12 (relative stereo) [H, Na, (2RS,5RS)] >= 10%
stdout: true
